- Target Or Test System: ACSS2 (Homo sapiens (Human))
- Method Description: Cellular assay of 14C acetate incorporation into histones (IC50 ACSS2 cellular histone)
- Assay type: cell-based
- Experimental Setup: HCT-15 cells
pIC50: −log10 of the molar value.
Property Measured: pIC50

Look up pIC50: CCn1c(C(O)(c2ccccc2F)c2ccccc2F)nc2nc(C)c(-c3nnn[nH]3)cc21 [Compound 59]
5.00 to 7.00

Look up pIC50: CCn1c(C(O)(c2ccccc2)c2ccc(OC(F)F)cc2F)nc2nc(OC)c(-c3nnn[nH]3)cc21 (racemic) [Compound 47]
8.00 to 9.00

Look up pIC50: Cc1nc2nc(C(O)(c3ccccc3)c3ccccc3)n(C)c2cc1-c1nnn[nH]1 [Compound 56]
5.00 to 7.00

Look up pIC50: CCc1c(C(O)(c2ccccc2)c2ccccc2)nn2cc(F)c(-c3nnn[nH]3)cc12 [Compound 23]
7.00 to 8.00

---

- Target Or Test System: UniProtKB Q9NR19
- Method Description: Cellular assay of 14C acetate incorporation into histones (IC50 ACSS2 cellular histone)
- Format: cell-based
- Experimental Setup: HCT-15 cells
pIC50: −log10 of the molar value.
Property Measured: pIC50

Worked cases, answers included:
Compound	Property Measured	Value Observed
CCc1c(C(O)(c2ccccc2)c2ccccc2)nn2cc(Cl)c(-c3nnn[nH]3)cc12	pIC50	7.00 to 8.00
CCc1c(C(O)(c2ccccc2)c2ccccn2)nc2cc(OC)c(-c3nnn[nH]3)cn12 (single isomer, unassigned) [Compound 11]	pIC50	7.00 to 8.00
CCn1c(C(O)(c2ccccc2)c2nccs2)nc2nc(OC)c(-c3nnn[nH]3)cc21 (single isomer, unassigned) [Compound 33]	pIC50	7.00 to 8.00
CCn1c(C(O)(c2ccccc2)c2ccccc2)nc2nc(F)c(-c3nnn[nH]3)cc21	pIC50	5.00 to 7.00
CCn1c(C(O)(c2ccccc2)c2ccsc2)nc2nc(OC)c(-c3nnn[nH]3)cc21 (racemic)	pIC50	7.00 to 8.00

Look up pIC50: CCc1c(C(O)(c2ccccc2F)c2ccccc2F)nn2cc(Cl)c(-c3nnn[nH]3)cc12
7.00 to 8.00

Look up pIC50: COc1nc2nc(C(O)(c3ccccc3)c3ccccc3)n(CCO)c2cc1-c1nnn[nH]1
5.00 to 7.00

---

- Target Or Test System: ACSS2 (Homo sapiens (Human), UniProt Q9NR19)
- Sequence (Q9NR19 whole entry): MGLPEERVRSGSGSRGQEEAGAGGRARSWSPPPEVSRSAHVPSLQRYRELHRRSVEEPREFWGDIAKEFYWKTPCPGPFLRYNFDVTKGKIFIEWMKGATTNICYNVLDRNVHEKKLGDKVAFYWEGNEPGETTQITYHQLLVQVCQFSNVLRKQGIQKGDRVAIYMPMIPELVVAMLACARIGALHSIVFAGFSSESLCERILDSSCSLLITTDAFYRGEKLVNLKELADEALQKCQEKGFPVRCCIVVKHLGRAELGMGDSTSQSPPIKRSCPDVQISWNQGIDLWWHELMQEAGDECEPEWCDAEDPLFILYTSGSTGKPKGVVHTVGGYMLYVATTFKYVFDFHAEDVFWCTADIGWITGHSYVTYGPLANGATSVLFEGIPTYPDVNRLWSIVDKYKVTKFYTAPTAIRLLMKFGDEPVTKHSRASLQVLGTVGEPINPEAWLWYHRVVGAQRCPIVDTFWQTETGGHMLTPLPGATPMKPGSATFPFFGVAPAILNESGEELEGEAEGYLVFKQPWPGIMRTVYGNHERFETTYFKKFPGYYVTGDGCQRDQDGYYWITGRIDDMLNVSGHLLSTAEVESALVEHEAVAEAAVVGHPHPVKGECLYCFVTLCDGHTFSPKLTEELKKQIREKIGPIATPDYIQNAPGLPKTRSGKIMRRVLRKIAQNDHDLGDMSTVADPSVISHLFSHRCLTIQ
- Method Description: Cellular assay of 14C acetate incorporation into histones (IC50 ACSS2 cellular histone)
- Assay type: cell-based
- Experimental Setup: HCT-15 cells
Property Measured: IC50

Worked cases, answers included:
Compound	IC50
CCc1c(C(O)(c2ccccc2F)c2ccccc2F)nc2cc(OC)c(-c3nnn[nH]3)cn12	1 to 10 nM
Cc1nc2nc(C(O)(c3ccccc3F)c3ccccc3F)n(C)c2cc1-c1nnn[nH]1	10 to 100 nM
CCn1c(C(O)(c2cccs2)c2cccs2)nc2nc(OC)c(-c3nnn[nH]3)cc21	100 to 10000 nM
CCn1c(C(O)(c2ccccc2)c2ccccc2)nc2nc(C)c(-c3nnn[nH]3)cc21	100 to 10000 nM

Look up IC50: CCc1c(C(O)(c2ccccc2)c2ccccc2)nn2cc(OC)c(-c3nnn[nH]3)cc12
1 to 10 nM

Look up IC50: CCc1c(C(O)(c2ccccc2)c2ccccn2)nc2cc(Cl)c(-c3nnn[nH]3)cn12 (single isomer, unassigned)
100 to 10000 nM

Look up IC50: CCc1c(C(O)(c2ccccc2)c2ncccn2)nc2cc(OC)c(-c3nnn[nH]3)cn12 (single isomer, unassigned)
100 to 10000 nM

---

The following compounds are shown together with reported IC50 values.
- Target Or Test System: human rec ACSS2 (Homo sapiens (Human))
- Sequence (Q9NR19 whole entry): as above
- Method Description: Biochemical activity ACSS2 assay (AMP-Glo)
- Experimental Setup: human recombinant ACSS2, AMP-Glo, 180 min at 37° C.

Worked cases, answers included:
Compound	Property Measured	Value Observed
CCc1c(C(O)(c2ccccc2)c2ccccc2)nc2cc(Cl)c(-c3nnn[nH]3)cn12 [Compound 9]	IC50	0.001 to 0.01 µM
CCc1c(C(O)(c2ccccc2)c2ncccn2)nc2cc(OC)c(-c3nnn[nH]3)cn12 (single isomer, unassigned) [Compound 14]	IC50	0.01 to 0.1 µM
CCc1c(C(O)(c2ccccc2F)c2ccccc2F)nc2cc(Cl)c(-c3nnn[nH]3)cn12 [Compound 5]	IC50	0.001 to 0.01 µM

Now take the following compound into account.
Look up IC50: CCc1c(C(O)(c2ccccc2)c2ccccn2)nc2cc(OC)c(-c3nnn[nH]3)cn12 (single isomer, unassigned) [Compound 10]
0.01 to 0.1 µM

---

- Target Or Test System: ACSS2 (Homo sapiens (Human), UniProt Q9NR19)
- Method Description: Cellular assay of 14C acetate incorporation into histones (IC50 ACSS2 cellular histone)
- Type: cell-based
- Experimental Setup: HCT-15 cells
pIC50: −log10 of the molar value.
Property Measured: pIC50

Worked cases, answers included:
Compound	pIC50
CCn1c(C(O)(c2ccccc2)c2ccncc2)nc2nc(OC)c(-c3nnn[nH]3)cc21 (racemic) [Compound 43]	5.00 to 7.00
CCn1c(C(O)(c2ccccc2)c2ccccc2)nc2ccc(C(=O)NC[C@@H](C)O)cc21 [Reference Compound, reference compound]	9.00 to 11.00
CCn1c(C(O)(c2ccccc2)c2ccccn2)nc2nc(OC)c(-c3nnn[nH]3)cc21 (single isomer, unassigned) [Compound 40]	9.00 to 11.00
CCn1c(C(O)(c2ccccc2)c2ncccn2)nc2nc(OC)c(-c3nnn[nH]3)cc21 (racemic) [Compound 37]	8.00 to 9.00
CCn1c(C(O)(c2ccccc2F)c2ccccc2F)nc2ncc(-c3nnn[nH]3)cc21 [Compound 61]	5.00 to 7.00
CCc1c(C(O)(c2ccccc2)c2ccccc2)nc2cc(OC)c(-c3nnn[nH]3)cn12 [Compound 2]	8.00 to 9.00

Look up pIC50: CCc1c(C(O)(c2ccccc2)c2ccccc2)nc2cc(Cl)c(-c3nnn[nH]3)cn12 [Compound 9]
5.00 to 7.00

Look up pIC50: CCn1c(C(O)(c2ccccc2)c2cccnn2)nc2nc(OC)c(-c3nnn[nH]3)cc21 (stereo not shown) [Compound 27]
8.00 to 9.00

Look up pIC50: CCn1c(C(O)(c2ccccc2)c2nccs2)nc2nc(OC)c(-c3nnn[nH]3)cc21 (racemic) [Compound 31]
8.00 to 9.00

Look up pIC50: CCn1c(C(O)(c2ccccn2)c2cccs2)nc2nc(OC)c(-c3nnn[nH]3)cc21 (racemic) [Compound 26]
8.00 to 9.00

Look up pIC50: CCn1c(C(O)(c2ccccc2)c2ccccc2)nc2nc(OC)c(-c3nnn[nH]3)cc21 [Compound 58]
9.00 to 11.00

Look up pIC50: CCc1c(C(O)(c2ccccc2F)c2ccccc2F)nc2cc(Cl)c(-c3nnn[nH]3)cn12 [Compound 5]
5.00 to 7.00

Look up pIC50: CCc1c(C(O)(c2ccccc2)c2ccccc2)nc2cc(F)c(-c3nnn[nH]3)cn12 [Compound 3]
5.00 to 7.00

Look up pIC50: [2H]c1c([2H])c([2H])c(C(O)(c2c([2H])c([2H])c([2H])c([2H])c2[2H])c2nc3nc(OC)c(-c4nnn[nH]4)cc3n2CC)c([2H])c1[2H] [Compound 63]
8.00 to 9.00

Look up pIC50: CCn1c(C(O)(c2ccccc2)c2ccccc2)nc2ncc(-c3nnn[nH]3)cc21 [Compound 60]
5.00 to 7.00

Look up pIC50: CCn1c(C(O)(c2ccccc2C)c2ccccc2C)nc2nc(OC)c(-c3nnn[nH]3)cc21 [Compound 39]
7.00 to 8.00

Look up pIC50: CCn1c(C(O)(c2ccc(OC(F)F)cc2)c2ccccc2F)nc2nc(OC)c(-c3nnn[nH]3)cc21 (racemic) [Compound 52]
8.00 to 9.00

Look up pIC50: CCn1c(C(O)(c2ccccc2)c2ccccn2)nc2nc(OC)c(-c3nnn[nH]3)cc21 (racemic) [Compound 50]
9.00 to 11.00

Look up pIC50: CCc1c(C(O)(c2ccccc2F)c2ccccc2F)nn2cc(OC)c(-c3nnn[nH]3)cc12 [Compound 19]
7.00 to 8.00

Look up pIC50: CCn1c(C(O)(c2ccccc2F)c2ccccc2F)nc2nc(F)c(-c3nnn[nH]3)cc21 [Compound 46]
7.00 to 8.00

Look up pIC50: CCn1c(C(O)(c2ccccc2F)c2ccccc2F)nc2nc(OC)c(-c3nnn[nH]3)cc21 [Compound 57]
8.00 to 9.00

Look up pIC50: CCn1c(C(O)(c2ccccc2)c2cccnc2)nc2nc(OC)c(-c3nnn[nH]3)cc21 (racemic) [Compound 44]
5.00 to 7.00

Value source: patent US20240009175A9
